Each entry below lists one item and its recorded viability at 28.5 h, 10 µM value.
ASSAY INFO: in vitro
TEST CONTEXT: human, hela cells, % viability
Only the number, expressed in %, is required.

Sample answers from the record:
CC1(C#N)CCCN(Cc2c[nH]nc2C(=O)O)C1 (stereo not shown); 80.1
O=S(=O)(Cc1ccc(Cl)cc1)Nc1cccc2[nH]ccc12; 99.5

Exercise: Which viability at 28.5 h, 10 µM reading was recorded for the compound O=C(O)CCC(=O)NCCc1ccc(Cl)cc1 ?
Solution: 92.7

Exercise: What does the record list as viability at 28.5 h, 10 µM for CCOC(=O)CSc1nc2cc(Cl)c(Cl)cc2nc1NC(C)C ?
Solution: 97.1

Exercise: Param item = O=C(Cc1cn2ccsc2n1)NCCCN1CCCc2ccccc21 ; retrieve measured viability at 28.5 h, 10 µM.
Solution: 101

Exercise: Which viability at 28.5 h, 10 µM reading was recorded for the compound O=C1c2ccccc2S(=O)(=O)N1CC(O)Cn1ccc2ccccc21 (stereo not shown) ?
Solution: 97.6

Exercise: Would you mind telling me what viability at 28.5 h, 10 µM value was observed for O=C(Nc1cc(Cl)cc(Cl)c1)c1ccc([N+](=O)[O-])s1 ?
Solution: 95.2

Exercise: Reported viability at 28.5 h, 10 µM for COc1cc(C(=O)N2CCCC3(CCN(C(=O)c4cc(F)c(F)cc4F)C3)C2)cc(OC)c1OC (stereo not shown) : what is it?
Solution: 106

Exercise: What viability at 28.5 h, 10 µM value was documented for this compound, Cn1c(N2CCC(C(=O)NC3CC3)CC2)nc2ccccc21 ?
Solution: 97.9

Exercise: So what does the record say about viability at 28.5 h, 10 µM for Nc1nc(=O)n([C@H]2C[C@@H](O)[C@@H](CO)O2)cc1O ?
Solution: 98.2

Source of measurements: paper PMC12040169
